Recorded values, source PubChem BioAssay (Tox21).

- Experimental protocol: qHTS assay for small molecule disruptors of the mitochondrial membrane potential - cell viability (AID 720634); further: nearly all actives have a fitted effect of over 20% in size
- Run parameters: HepG2 viability, ATP luminescence (CellTiter-Glo), 1 h; series mostly up to 83.2 µM
Results filed as inconclusive are left out. Active and inactive are the calls of the source. The call rests on the fitted dose curve.
Outcome codes: 1 (yes) for active, 0 (no) for inactive

Compound | Assigned label
O=[N+]([O-])c1cccc2cccnc12 | 0 (no)
CCOC(=O)N(C)C(=O)CSP(=S)(OCC)OCC | 0 (no)
CCC(C)n1c(=O)[nH]c(C)c(Br)c1=O (stereo not drawn) | 0 (no)
CCOP(=S)(OCC)Oc1ncn(-c2ccccc2)n1 | 0 (no)
C=CCC1=C(C)[C@@H](OC(=O)[C@@H]2[C@@H](C=C(C)C)C2(C)C)CC1=O | 1 (yes)
COC(=O)C1=CCCN(C)C1 | 0 (no)
CC(C)NCC(O)c1ccc(N)c(C#N)c1 (stereo not drawn) | 0 (no)
COc1cc(OC)nc(NC(=O)NS(=O)(=O)c2ncccc2OCC(F)(F)F)n1 | 0 (no)
CN(N=O)C(N)=O | 0 (no)
N#CC(Cl)(Cl)Cl | 0 (no)
C[C@@H]1CN(C2CCC(C#N)(c3ccc(F)cc3)CC2)CC[C@]1(C(=O)O)c1ccccc1 (stereo partly drawn) | 0 (no)
N#CC(CCc1ccc(Cl)cc1)(Cn1cncn1)c1ccccc1 (stereo not drawn) | 0 (no)
COP(=S)(OC)Oc1ccc(S(N)(=O)=O)cc1 | 0 (no)
O=C(O)c1cccc(Cl)c1 | 0 (no)
COC(=O)C(C)Oc1ccc(Oc2ccc(Cl)cc2Cl)cc1 (stereo not drawn) | 0 (no)
CC1=NNC(=O)N(/N=C/c2cccnc2)C1 | 0 (no)
CS(=O)(=O)c1cc(C(F)(F)F)ccc1C(=O)c1cnoc1C1CC1 | 0 (no)
CC(C)CP(=S)(S)CC(C)C | 0 (no)
OC(Cn1cncn1)(c1ccc(F)cc1)c1ccccc1F (stereo not drawn) | 0 (no)
CN1C(=S)CN=C(c2ccccc2)c2cc(Cl)ccc21 | 0 (no)
C[N+](C)=CCl | 0 (no)
Cc1ncsc1CCCl | 0 (no)
O=C(O)C(Br)CBr (stereo not drawn) | 0 (no)
ClC(Cl)Br | 0 (no)
CC1CN1P(=O)(N1CC1C)N1CC1C (stereo not drawn) | 0 (no)
COP(N)(=S)Oc1ccccc1C(=O)OC(C)C (stereo not drawn) | 0 (no)
CCC1(c2ccccc2)C(=O)NC(=O)NC1=O | 0 (no)
NC(=O)c1cc([N+](=O)[O-])cc([N+](=O)[O-])c1 | 0 (no)
CCC(=O)c1ccccc1 | 0 (no)
CCNc1nc(NC(C)C)nc(OC)n1 | 0 (no)
Nc1n[nH]c(N)n1 | 0 (no)
NC(=O)O | 0 (no)
Fc1ccc(C2(Cn3cncn3)OC2c2ccccc2Cl)cc1 (stereo not drawn) | 0 (no)
CCCCP(CCCC)CCCC | 0 (no)
[O]=[Cd] | 0 (no)
CCCCOC(=O)c1ccccc1N | 0 (no)
c1cc2c(c(N3CCNCC3)c1)OCCO2 | 0 (no)
O=C(CCCN1CCC(n2c(=O)[nH]c3ccccc32)CC1)c1ccc(F)cc1 | 0 (no)
N#CCNCC#N | 0 (no)
CCCCOP(=O)(O)OCCCC | 0 (no)
ClC(Cl)C(Cl)Cl | 0 (no)
CC(=O)Nc1cc([As](=O)(O)O)ccc1O | 0 (no)
Cc1cc(C)nc(Nc2ccccc2)n1 | 0 (no)
CC(C)(C)OC(=O)c1ncn2c1[C@@H]1CCCN1C(=O)c1c(Br)cccc1-2 | 0 (no)
Nc1ccccc1Cl | 0 (no)
CC(C)(C)NCC(O)c1cc(Cl)c(N)c(Cl)c1 (stereo not drawn) | 0 (no)
CCOC(=O)/C=C(C)/C=C/C[C@@H](C)CCCC(C)C | 0 (no)
C[N+](=O)[O-] | 0 (no)
N#Cc1ccncc1 | 0 (no)
O=C(Cc1ccccc1)OCc1ccccc1 | 0 (no)
O=C(Nc1ccccc1)c1ccccc1I | 0 (no)
O=[N+]([O-])c1cccc2c([N+](=O)[O-])cccc12 | 0 (no)
CC(=O)[C@H]1CC[C@H]2[C@@H]3CC[C@H]4C[C@H](O)CC[C@]4(C)[C@H]3C(=O)C[C@]12C | 0 (no)
COC(=O)c1ccccc1S(=O)(=O)NC(=O)N(C)c1nc(C)nc(OC)n1 | 0 (no)
CN(C)CCc1ccc(O)cc1 | 0 (no)
N#CC(O)c1ccccc1 (stereo not drawn) | 0 (no)
O=[N+]([O-])c1ccc2c3c(cccc13)CC2 | 0 (no)
CCN(CC)CCOC(=O)C(C)(c1ccccc1)c1ccccc1 | 0 (no)
